target: hCA I (Homo sapiens)
Sequence (P00915 whole entry): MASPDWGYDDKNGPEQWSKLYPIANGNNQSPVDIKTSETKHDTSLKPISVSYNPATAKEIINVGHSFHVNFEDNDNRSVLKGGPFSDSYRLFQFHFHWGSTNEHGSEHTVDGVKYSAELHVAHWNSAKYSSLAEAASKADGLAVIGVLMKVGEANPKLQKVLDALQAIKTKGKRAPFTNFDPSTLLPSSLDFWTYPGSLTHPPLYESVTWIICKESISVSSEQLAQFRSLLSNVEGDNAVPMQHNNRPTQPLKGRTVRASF
value_kind: Ki (nM)
Answers are plain numbers, in nM.

Q) If you can, please state the reported Ki value of NS(=O)(=O)c1ccc(-n2cc(-c3ccccn3)nn2)cc1 .
A) 181
